Please respond with reported protein stability index for every item in the list.
PROTOCOL_TEXT: protein stability index of a GFP-peptide fusion (yeast GPS) (PSI 1-4); higher = more stable; sorted into four equal gates, so the index is relative within each strain
EXPERIMENTAL_CONDITIONS: doa10∆
Reply with just the number.

// lookup protein stability index for SKFYNMKQPYVFVKKHH [SSN2]
1.58

# input sequence: GPVGKECADLWPRVASN [RPL23A] ; wanted: its protein stability index
3.2

# input sequence: LTNQQPKNLSTPSTSSN [CSE2] ; wanted: its protein stability index
2.94

Name the recorded protein stability index for YCHEKELTIIKNPRVTK [CSN9] .
2.55

Any idea what protein stability index was measured for VNRLLSVIPLKGRYAPE [RRP4] ?
1.85

# input sequence: IQEIKESVELPLTHPEL [RPT2] ; wanted: its protein stability index
2.7

Given DNHSGDATANATANATA [DSN1] , state its recorded protein stability index.
3.22

Could you tell me which protein stability index is on file for VNNGNIPSQRGTSTTHG [SIR3] ?
2.37

Dear colleague, I am looking for the recorded protein stability index of the following sequence: AHAQHQPSQQPQQAQQQ [GAL11]
2.92

Quick one: protein stability index of EQHNLVKKGPVRLPTKV [RPS20] ?
2.45

What measured protein stability index goes with LSHYIRQCFQDNCCDFK [MED1] ?
2.78

Recorded protein stability index for DYVASLNELYQTQQDLP [NSL1] , please?
3

Suppose we examine the sequence GTNKDMILKLVCQVTKF [ECM29] ; what protein stability index value has been reported?
1.55

Entry under review: SEHFDVNDNPDIEAGDD [DIS3] . Reported protein stability index?
2.81

Given the entry YVSALKRINKFLDSVHK [POP7] , report its measured protein stability index.
1.91

Tell me the measured protein stability index of PYKYRLREEIFIANEGV [RPL2A] , please.
2.88

Endpoint output: protein stability index of LFQRQKLHEFYLLISKE [IRR1] . Value?
2.69

Entry under review: IHLLHDDRGPVLESIVA [BRR2] . Reported protein stability index?
2.48

Form field: reported protein stability index of EIAQANSRNAIRKLVKN [RPL19A]
2.9

I would be grateful if you could share the reported protein stability index for LDTQLNDLRVSLNEKNA [SMC1] .
3.03

Reported protein stability index, sequence LCLMTWKEVMFDPSKDV [CDC53] : ____
2.52

Fill in: protein stability index of TETFEKPQRTNTLRMKH [RPB2] is ___
3.05

Give its protein stability index value. Item: LANRSKENFILDSLMKT [YJL039C/NUP192]
2.47

Given the sequence ADNTKDKEKEENNDDAL [MED4] , what is its reported protein stability index?
2.86

What does the data say about its protein stability index? Entry: FTPKLIYDFITLFSSIE [ECM29]
2.06

Which protein stability index is reported for this sequence? PQALRVLRLKPGRKYTT [RPL16A]
2.97

Need protein stability index of NFAHSDSLSVPKVSAGD [SIR4] , thanks.
2.95

Param item = CYLRWQHLRNEHGMNAP [SNF2] ; retrieve measured protein stability index.
3.15

Please report the recorded protein stability index for PLDEIPVDVDFNLDLDD [REC8] .
2.7

Entry under review: INYLLTLAITTVTNSKF [RPN2] . Reported protein stability index?
2.22

protein stability index for MSTFIFPGDSFPVDPTT [RRP40] ?
2.17

What value of protein stability index has been reported for the following sequence? KDSVTECSKDMKEDGLS [SIR4]
3.21

Returns the measured protein stability index for the input sequence. Input: FYMLNAGIRPKFILALN [RPN1]
2.22

Look at this sequence and give its reported protein stability index. LTGEWSTKFDYPPMPFD [FAS1]
2.85

Reported protein stability index for KHFIQGGSFGNREEFIN [RPL7A] : what is it?
1.61

// protein stability index lookup, key: DNNYNTAETNNKVHETS [YDL088C/ASM4]
2.99

Look up protein stability index: GVGKRKVWLDPNETSEI [RPL19A]
3.13

Recorded protein stability index for LQSLTSKGYVKTQFSWQ [RPS10A] , please?
3.2

May I ask what protein stability index has been recorded for DMQSSVDTGLQPQHPHY [YLR018C/POM34] ?
2.56

Could you tell me which protein stability index is on file for EQELAHILLTELLAYQF [FAS2] ?
2.55

Which measured protein stability index value corresponds to LVTIEGALIHKAGLMTG [SMC1] ?
2.99

Please look up its protein stability index: KITIGIQRTTESLILKW [RGR1]
2.33

Please report the recorded protein stability index for YPFVTNDDIEWMLSICV [YJR042W/NUP85] .
2.29

What value of protein stability index has been reported for the following sequence? GTLLREDDNTPAGHAGN [YDL088C/ASM4]
3.03

Entry NNDADKGRSYAYFMVGA [RIP1] : reported protein stability index = ?
3.24

Can you look up the measured protein stability index of MVLFNIYDDWLDRISSY [PRP8] for me?
2.26

Find the recorded protein stability index belonging to LNVIIDQLAVSPEQIDA [YCS4] and report it.
2.19

// protein stability index lookup, key: LGRTGSRGGVTQVRVEF [RPS28A]
3.29

What protein stability index value was documented for this sequence, CAFLLTKIKDAEEDSLL [YJL039C/NUP192] ?
3.22

Which value of protein stability index has been reported for TNTSKQFQKARNNVMLL [SRB8] in the records?
2.65

Fill in the blank: the reported protein stability index of LERVKANAAKRAEAKAQ [RPL21A] is ____.
3.14

Which protein stability index value is on record for RVAASFSQEALQYVVER [FAS1] ?
1.06

Need protein stability index, item LIYGISDEERDDEDDEH [AAR2]
3.22

Entry GFFENIETEFLLFTVKL [IRR1] has what protein stability index?
3.12

Field request: protein stability index | item: IDATLKEELLRDGVLTV [RRP45]
1.8

Consider the sequence AKKKVLDVTKEAQANLL [RPO21] and give its measured protein stability index.
2.41

Form field: reported protein stability index of DSFIEKIIPKDISATQL [ITC1]
2.96

# lookup: protein stability index of GGRYVYPVHEAHKGQIV [SNU114]
1.58

Recorded protein stability index for NTQPSASGFGFGGSQPN [YGR119C/NUP57] , please?
3.18

GET /values?readout=protein stability index&item= PAKVAEEGINKFKKEKF [SRP54]
3.2

Where these numbers come from: the supplement of paper PMC9732359
